- Tested on: GENE-TOX genotoxicity assays, various organisms and cells
- assay-remarks: GENE-TOX mutagenicity studies
- assay-setup: Species/Cell Type: Escherichia coli WP2; Assay Type: Tryptophan reverse gene mutation; Assay Code: WP2T; Evaluation Type: Evaluation A (Pre-1980)

| chem-smiles | mutagenic call |
| --- | --- |
| [N-]=[N+]=[N-] | no conclusion |
| Nc1nc(NO)c2[nH]cnc2n1 | no conclusion |
| NC(=O)N/N=C/c1ccc([N+](=O)[O-])o1 | no conclusion |
| CCCCNC(=O)n1c(NC(=O)OC)nc2ccccc21 | no conclusion |

====

- System: GENE-TOX genotoxicity assays, various organisms and cells
- assay-remarks: GENE-TOX mutagenicity studies
- assay-setup: Species/Cell Type: Chinese hamster ovary (CHO) cells; Assay Type: Forward gene mutation at the HPRT locus; Assay Code: CHOT; Evaluation Type: Evaluation B (Post-1980)
observed-property: mutagenic call

Past entries and their recorded results:
| molecule | study-system | mutagenic call |
| --- | --- | --- |
| CCN(CCO)CCCNc1c2ccc(Cl)cc2nc2ccc(OC)nc12 | GENE-TOX genotoxicity assays, various organisms and cells | no conclusion |
| CC(=O)[O-].CC(=O)[O-].CC(=O)[O-].[Cr+3] | GENE-TOX genotoxicity assays, various organisms and cells | no conclusion |
| ClCc1ccc(-c2ccccc2)cc1 | GENE-TOX genotoxicity assays, various organisms and cells | no conclusion |
| [Cl][Pt-2]([Cl])([Cl])[Cl] | GENE-TOX genotoxicity assays, various organisms and cells | no conclusion |

(Q) Form field: reported mutagenic call of CCCCC(CC)COC(=O)c1ccccc1C(=O)O (stereo not given)
(A) no conclusion

(Q) Form field: reported mutagenic call of Cn1c(N)nc2c3cccnc3ccc21
(A) no conclusion

(Q) Form field: reported mutagenic call of CCN(CCO)CCCNc1c2ccc(Cl)cc2nc2ccc(OC)cc12
(A) no conclusion
